PROTOCOL NOTES: Aqueous solubility (saturated conditions, 3 days, UV 297 nm)
Type: physicochemical
SETUP CONDITIONS: water, 25 °C, thermodynamic from solid
Entries and their measured solubility at 3 days follow.
Express it in µg/mL; write the number only.

A selection of reference data follows.
| COMPOUND STRING | ENDPOINT UNIT | solubility at 3 days |
| --- | --- | --- |
| CCCCCCCCCCCCCCCC(=O)OC[C@H]1O[C@H](Oc2cc(O)c(C(=O)CCc3ccc(O)cc3)c(O)c2)[C@H](O)[C@@H](O)[C@@H]1O | µg/mL | 7.1 |
| CCCCCCCC(=O)OC[C@H]1O[C@H](Oc2cc(O)c(C(=O)CCc3ccc(O)cc3)c(O)c2)[C@H](O)[C@@H](O)[C@@H]1O | µg/mL | 22.1 |

Now let's try a different one.
Please supply the value of reported solubility at 3 days for the item CCCCCCCCCCCC(=O)OC[C@H]1O[C@H](Oc2cc(O)c(C(=O)CCc3ccc(O)cc3)c(O)c2)[C@H](O)[C@@H](O)[C@@H]1O
6
